- Tested on: rat osteocalcin promoter
- run description: OCN (osteocalcin) promoter assay
- Type: cell-based
- condition label: RG-15 (ROS 17/2.8) cells, 48 hr treatment, luciferase; several values separated by /
measure name: EC50 (nM)

compound: CCC(CC)(c1ccc(OCC(O)C(C)(C)C)c(C)c1)c1cc2ccc(C(=O)O)cc2o1 (stereo not drawn)
result: 0.9
//
compound: CCC(CC)(c1ccc(OCC2(C(C)(C)C)OCCO2)c(C)c1)c1cc2cc(C(=O)NCC(=O)O)ccc2o1
result: 44
//
compound: CCC(CC)(c1ccc(OCC(=O)C(C)(C)C)c(C)c1)c1cc2cc(C(=O)N(C)C)ccc2o1
result: 79
//
compound: CCC(CC)(c1ccc(OCC(O)C(C)(C)C)c(C)c1)c1cc(C)c2oc(C(=O)N(C)C)cc2c1 (stereo not drawn)
result: 17
//
compound: CCC(CC)(c1ccc(OCC2(C(C)(C)C)OCCO2)c(C)c1)c1cc(C)c2oc(C(=O)O)cc2c1
result: 88
//
compound: CCC(CC)(c1ccc(OCC(=O)C(C)(C)C)c(C)c1)c1ccc2oc(C(=O)O)c(C)c2c1
result: 21
//
compound: CCC(CC)(c1ccc(OCC(O)C(C)(C)C)c(C)c1)c1ccc2oc(C(=O)O)c(C)c2c1 (stereo not drawn)
result: 21
//
compound: CCC(CC)(c1ccc(OCC(O)C(C)(C)C)c(C)c1)c1cc2cc(C(=O)N(C)C)ccc2o1 (stereo not drawn)
result: 47
//
compound: CCC(CC)(c1ccc(OCC(=O)C(C)(C)C)c(C)c1)c1cc(C)c2oc(C(=O)O)cc2c1
result: 1

###

- assay target: VDR (Homo sapiens, UniProt P11473)
- Construct: the receptor expression vector pGal4-VDR-LBD (10 ng); expressed in transfected cells; host or cells: Caco-2 cells
- run description: VDR CTF (Caco-2 cell co-transfection) assay
- Format: cell-based
- condition label: Caco-2 cells, pGal4-VDR-LBD co-transfection, luciferase; several values separated by /
// returns no (0) unless EC50 is strictly below 500 nM, in which case yes (1)

compound: CCC(CC)(c1ccc(OCC(=O)C(C)(C)C)c(C)c1)c1cc2cc(C(=O)Nc3nn[nH]n3)ccc2o1
class assignment: no (0)
--
compound: CCC(CC)(c1ccc(OCC(O)C(C)(C)C)c(C)c1)c1ccc2oc(C(=O)O)c(C)c2c1 (centres unmarked)
class assignment: no (0)
--
compound: CCC(CC)(c1ccc(OCC(O)C(C)(C)C)c(C)c1)c1ccc2oc(C(=O)NCC(=O)O)cc2c1 (centres unmarked)
class assignment: yes (1)
--
compound: CCC(CC)(c1ccc(OCC(=O)C(C)(C)C)c(C)c1)c1cc2cc(C(=O)O)ccc2o1
class assignment: no (0)
--
compound: CCC(CC)(c1ccc(OCC(=O)C(C)(C)C)c(C)c1)c1cc2cc(C(=O)N(C)C)ccc2o1
class assignment: no (0)
--
compound: CCC(CC)(c1ccc(OCC(O)C(C)(C)C)c(C)c1)c1ccc2oc(C(=O)N(C)C)c(C)c2c1 (centres unmarked)
class assignment: no (0)
--
compound: CCC(CC)(c1ccc(OCC(=O)C(C)(C)C)c(C)c1)c1ccc2oc(C(=O)O)cc2c1
class assignment: yes (1)
--
compound: CCC(CC)(c1ccc(OCC(=O)C(C)(C)C)c(C)c1)c1cc(C)c2oc(C(=O)O)cc2c1
class assignment: yes (1)

###

Measured Mouse Hypercal, listed per entry for reference.
- Test system: female DBF mice
- run description: Mouse hypercalcemia assay
- condition label: oral gavage for 6 days; serum ionized calcium 6 hours after last dosing
measure name: Mouse Hypercal

compound: CCc1cc(C(CC)(CC)c2cc3cc(C(=O)O)ccc3o2)ccc1OCC(=O)C(C)(C)C [Ex. 12]
result: >1000 µg/kg/day

compound: CCC(CC)(c1ccc(OCC(=O)C(C)(C)C)c(C)c1)c1cc(C)c2oc(C(=O)O)cc2c1 [Ex 21]
result: >1000 µg/kg/day

compound: CCC(CC)(c1ccc(OCC(=O)C(C)(C)C)c(C)c1)c1cc(C)c2oc(C(=O)NCC(=O)O)cc2c1 [Ex 28]
result: >1000 µg/kg/day

###

Measured EC50, listed per entry for reference.
- assay target: RXR-VDR heterodimer (Homo sapiens, UniProt P11473)
- Construct: Add the Gal4-RXR-DEF and VP16-VDR-LBD
- Sequence (P11473 127-423 limits assumed): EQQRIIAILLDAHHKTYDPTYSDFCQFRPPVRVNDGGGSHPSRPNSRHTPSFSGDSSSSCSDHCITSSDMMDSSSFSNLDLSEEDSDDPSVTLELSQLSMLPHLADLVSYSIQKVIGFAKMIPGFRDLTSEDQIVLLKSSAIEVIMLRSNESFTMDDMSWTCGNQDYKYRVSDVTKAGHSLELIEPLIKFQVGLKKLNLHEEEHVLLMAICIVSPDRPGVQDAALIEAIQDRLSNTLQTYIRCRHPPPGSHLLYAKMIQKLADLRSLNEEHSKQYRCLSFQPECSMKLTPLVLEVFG
- Sequence (P19793 201-462 partner limits assumed): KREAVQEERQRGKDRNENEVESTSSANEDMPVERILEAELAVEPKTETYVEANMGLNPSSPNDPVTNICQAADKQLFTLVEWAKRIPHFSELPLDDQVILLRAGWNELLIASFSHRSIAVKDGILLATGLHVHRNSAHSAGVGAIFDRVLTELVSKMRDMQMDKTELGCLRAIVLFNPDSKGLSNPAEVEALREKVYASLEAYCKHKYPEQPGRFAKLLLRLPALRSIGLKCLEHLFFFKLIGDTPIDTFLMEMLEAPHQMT
- run description: RXR-VDR heterodimerization assay (SaOS-2 cells)
- condition label: Gal4-RXR-DEF/VP16-VDR-LBD luciferase reporter, several values in a cell separated by /
measure name: EC50 (nM)

molecule: CCC(CC)(c1ccc(OCC(=O)C(C)(C)C)c(C)c1)c1cc2cc(C(=O)O)ccc2o1
readout unit: nM
result: 75
//
molecule: CCC(CC)(c1ccc(OCC(=O)C(C)(C)C)c(C)c1)c1ccc2oc(C(=O)N(C)C)c(C)c2c1
readout unit: nM
result: 536
//
molecule: CCC(CC)(c1ccc(OCC(O)C(C)(C)C)c(C)c1)c1ccc2oc(C(=O)NCC(=O)O)c(C)c2c1 (stereo not drawn)
readout unit: nM
result: 138
//
molecule: CCC(CC)(c1ccc(OCC(O)C(C)(C)C)c(C)c1)c1cc(C)c2oc(C(=O)O)cc2c1 (stereo not drawn)
readout unit: nM
result: 27
//
molecule: CCC(CC)(c1ccc(OCC(=O)C(C)(C)C)c(C)c1)c1cc2cc(C(=O)N(C)CC(=O)O)ccc2o1
readout unit: nM
result: 9
//
molecule: CCC(CC)(c1ccc(OCC(O)C(C)(C)C)c(C)c1)c1ccc2oc(C(=O)O)cc2c1 (stereo not drawn)
readout unit: nM
result: 12

###

- assay target: RXR-VDR heterodimer (Homo sapiens)
- Construct: Add the Gal4-RXR-DEF and VP16-VDR-LBD
- run description: RXR-VDR heterodimerization assay (SaOS-2 cells)
- condition label: Gal4-RXR-DEF/VP16-VDR-LBD luciferase reporter, several values in a cell separated by /
Measured EC50, listed per entry for reference.

compound: CCC(CC)(c1ccc(OCC(=O)C(C)(C)C)c(C)c1)c1cc2cc(C(=O)Nc3nn[nH]n3)ccc2o1
EC50, nM: 730
--
compound: CCC(CC)(c1ccc(OCC(O)C(C)(C)C)c(C)c1)c1cc(C)c2oc(C(=O)NCC(=O)O)cc2c1 (stereo not shown)
EC50, nM: 71
--
compound: CCC(CC)(c1ccc(OCC(=O)C(C)(C)C)c(C)c1)c1cc2ccc(OS(C)(=O)=O)cc2o1
EC50, nM: 80
--
compound: CCC(CC)(c1ccc(OCC(=O)C(C)(C)C)c(C)c1)c1cc2cc(C(=O)NC(C)(C)C(=O)O)ccc2o1
EC50, nM: 235
--
compound: CCC(CC)(c1ccc(OCC2(C(C)(C)C)OCCO2)c(C)c1)c1cc(C)c2oc(C(=O)NCC(=O)O)cc2c1
EC50, nM: 851
--
compound: CCC(CC)(c1ccc(OCC2(C(C)(C)C)OCCO2)c(C)c1)c1cc(C)c2oc(C(=O)N(C)C)cc2c1
EC50, nM: 67
--
compound: CCC(CC)(c1ccc(OCC(O)C(C)(C)C)c(C)c1)c1ccc2oc(C(=O)NCC(=O)O)cc2c1 (stereo not shown)
EC50, nM: 9

###

- assay target: VDR (Homo sapiens, UniProt P11473)
- Construct: the receptor expression vector pGal4-VDR-LBD (10 ng); expressed in transfected cells; host or cells: Caco-2 cells
- run description: VDR CTF (Caco-2 cell co-transfection) assay
- Assay type: cell-based
- condition label: Caco-2 cells, pGal4-VDR-LBD co-transfection, luciferase; several values separated by /
- Protocol: 2. The Caco-2 Cell Co-Transfection Assay: The Caco-2 cell assay is an indicator for the undesirable condition of hypercalcemia. This co-transfection assay is a surrogate assay for in vivo calcemic activity of VDR ligands. […] Preferred assay results are greater than 1000 nM. (2) Materials and Method for the Caco-2 Cell Assay: […]
measure name: EC50 (nM)

compound: CCc1cc(C(CC)(CC)c2cc3cc(C(=O)O)ccc3o2)ccc1OCC(=O)C(C)(C)C [Ex. 12]
measure name: EC50
result: 515
--
compound: CCC(CC)(c1ccc(OCC(O)C(C)(C)C)c(C)c1)c1ccc2oc(C(=O)NCC(=O)O)c(C)c2c1 (stereo not shown) [Ex 39]
measure name: EC50
result: 419
--
compound: CCC(CC)(c1ccc(OCC(=O)C(C)(C)C)c(C)c1)c1cc2ccc(C(=O)NCC(=O)O)cc2o1 [Ex 20]
measure name: EC50
result: 773
--
compound: CCC(CC)(c1ccc(OCC(=O)C(C)(C)C)c(C(C)C)c1)c1cc2cc(C(=O)O)ccc2o1 [Ex 17]
measure name: EC50
result: 589
